Below, each of the molecules is paired with its reported IC50 value.
target: Receptor-type tyrosine-protein phosphatase beta (Homo sapiens); assay: Inhibition of recombinant human PTPbeta using DiFMUP as substrate preincubated for 10 mins followed by substrate addition and measured after 2 hrs
Sequence (P23467 whole entry): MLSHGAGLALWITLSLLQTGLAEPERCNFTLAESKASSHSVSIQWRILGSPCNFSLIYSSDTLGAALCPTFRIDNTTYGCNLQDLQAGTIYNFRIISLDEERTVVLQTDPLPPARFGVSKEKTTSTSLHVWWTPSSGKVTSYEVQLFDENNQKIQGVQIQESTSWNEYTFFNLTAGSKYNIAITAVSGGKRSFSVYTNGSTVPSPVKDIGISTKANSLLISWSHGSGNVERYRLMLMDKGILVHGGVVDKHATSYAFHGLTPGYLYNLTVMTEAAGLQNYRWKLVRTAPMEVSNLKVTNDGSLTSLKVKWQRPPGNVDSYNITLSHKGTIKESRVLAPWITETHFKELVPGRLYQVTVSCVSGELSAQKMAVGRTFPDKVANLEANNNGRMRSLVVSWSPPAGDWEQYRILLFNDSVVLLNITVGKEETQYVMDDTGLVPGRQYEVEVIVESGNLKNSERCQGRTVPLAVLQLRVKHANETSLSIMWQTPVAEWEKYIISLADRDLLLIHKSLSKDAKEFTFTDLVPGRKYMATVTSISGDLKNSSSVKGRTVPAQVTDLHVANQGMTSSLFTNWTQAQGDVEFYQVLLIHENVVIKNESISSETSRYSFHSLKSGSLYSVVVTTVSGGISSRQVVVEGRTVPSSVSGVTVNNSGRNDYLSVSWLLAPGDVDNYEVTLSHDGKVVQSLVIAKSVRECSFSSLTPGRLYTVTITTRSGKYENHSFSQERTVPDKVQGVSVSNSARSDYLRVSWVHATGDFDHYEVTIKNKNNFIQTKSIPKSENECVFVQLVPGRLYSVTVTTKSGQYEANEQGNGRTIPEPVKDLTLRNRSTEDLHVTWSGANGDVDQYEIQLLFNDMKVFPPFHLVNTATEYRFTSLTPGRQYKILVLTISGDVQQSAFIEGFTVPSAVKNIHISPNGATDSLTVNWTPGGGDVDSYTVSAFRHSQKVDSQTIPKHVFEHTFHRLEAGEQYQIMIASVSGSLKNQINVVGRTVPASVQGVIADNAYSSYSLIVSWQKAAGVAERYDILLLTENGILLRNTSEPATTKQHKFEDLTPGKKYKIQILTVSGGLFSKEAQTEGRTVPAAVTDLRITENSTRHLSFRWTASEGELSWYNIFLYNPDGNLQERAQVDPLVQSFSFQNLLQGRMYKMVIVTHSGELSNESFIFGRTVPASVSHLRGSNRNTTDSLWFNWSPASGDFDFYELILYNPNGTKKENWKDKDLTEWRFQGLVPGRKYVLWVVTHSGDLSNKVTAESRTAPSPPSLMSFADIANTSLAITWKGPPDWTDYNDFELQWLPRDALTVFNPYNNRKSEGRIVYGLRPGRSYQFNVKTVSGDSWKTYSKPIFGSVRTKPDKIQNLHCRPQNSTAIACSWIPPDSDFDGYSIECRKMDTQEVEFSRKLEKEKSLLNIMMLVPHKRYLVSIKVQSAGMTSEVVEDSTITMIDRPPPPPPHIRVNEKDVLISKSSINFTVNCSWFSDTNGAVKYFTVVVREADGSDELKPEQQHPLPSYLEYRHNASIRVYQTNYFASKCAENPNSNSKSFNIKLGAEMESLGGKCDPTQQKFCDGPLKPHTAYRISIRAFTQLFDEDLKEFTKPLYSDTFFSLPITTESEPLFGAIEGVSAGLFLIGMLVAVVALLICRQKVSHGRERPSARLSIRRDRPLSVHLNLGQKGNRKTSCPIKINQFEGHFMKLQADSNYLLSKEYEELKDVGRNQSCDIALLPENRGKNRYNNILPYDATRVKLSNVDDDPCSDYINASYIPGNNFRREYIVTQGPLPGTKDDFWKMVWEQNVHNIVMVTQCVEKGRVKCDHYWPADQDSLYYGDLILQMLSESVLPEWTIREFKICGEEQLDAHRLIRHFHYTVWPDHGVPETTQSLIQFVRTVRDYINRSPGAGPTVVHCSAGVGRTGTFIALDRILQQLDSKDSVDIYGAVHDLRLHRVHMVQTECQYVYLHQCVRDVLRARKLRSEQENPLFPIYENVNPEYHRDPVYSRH
All answers are understood in nM, so give the number only.

The examples below pair each entry with its known result.
Entry COc1cccc(S(=O)(=O)N(Cc2ccc(NS(=O)(=O)O)cc2)c2nc(-c3cccs3)cs2)c1 — recorded IC50 = 1410

Entry O=C(c1ccccc1Cl)N(Cc1ccc(NS(=O)(=O)O)cc1)c1nc(-c2ccccc2)cs1 — recorded IC50 = 4670

Entry O=S(=O)(O)Nc1ccc(CN(c2nc(-c3ccccc3)cs2)S(=O)(=O)c2cccc(Cl)c2)cc1 — recorded IC50 = 1320

Entry CC(C)(C)OC(=O)N1CCC(C(=O)N(Cc2ccc(NS(=O)(=O)O)cc2)c2ccccc2)CC1 — recorded IC50 = 1450

Alright, here's another molecule for you.
Entry COc1ccc(S(=O)(=O)N(Cc2ccc(NS(=O)(=O)O)cc2)c2nc(-c3ccccc3)cs2)cc1 — recorded IC50 = 2070

* * *

Below, each of the compounds is paired with its reported IC50 value.
molecular target: Receptor-type tyrosine-protein phosphatase F (Homo sapiens); assay: Inhibition of recombinant LAR (unknown origin)
Sequence (P10586 whole entry): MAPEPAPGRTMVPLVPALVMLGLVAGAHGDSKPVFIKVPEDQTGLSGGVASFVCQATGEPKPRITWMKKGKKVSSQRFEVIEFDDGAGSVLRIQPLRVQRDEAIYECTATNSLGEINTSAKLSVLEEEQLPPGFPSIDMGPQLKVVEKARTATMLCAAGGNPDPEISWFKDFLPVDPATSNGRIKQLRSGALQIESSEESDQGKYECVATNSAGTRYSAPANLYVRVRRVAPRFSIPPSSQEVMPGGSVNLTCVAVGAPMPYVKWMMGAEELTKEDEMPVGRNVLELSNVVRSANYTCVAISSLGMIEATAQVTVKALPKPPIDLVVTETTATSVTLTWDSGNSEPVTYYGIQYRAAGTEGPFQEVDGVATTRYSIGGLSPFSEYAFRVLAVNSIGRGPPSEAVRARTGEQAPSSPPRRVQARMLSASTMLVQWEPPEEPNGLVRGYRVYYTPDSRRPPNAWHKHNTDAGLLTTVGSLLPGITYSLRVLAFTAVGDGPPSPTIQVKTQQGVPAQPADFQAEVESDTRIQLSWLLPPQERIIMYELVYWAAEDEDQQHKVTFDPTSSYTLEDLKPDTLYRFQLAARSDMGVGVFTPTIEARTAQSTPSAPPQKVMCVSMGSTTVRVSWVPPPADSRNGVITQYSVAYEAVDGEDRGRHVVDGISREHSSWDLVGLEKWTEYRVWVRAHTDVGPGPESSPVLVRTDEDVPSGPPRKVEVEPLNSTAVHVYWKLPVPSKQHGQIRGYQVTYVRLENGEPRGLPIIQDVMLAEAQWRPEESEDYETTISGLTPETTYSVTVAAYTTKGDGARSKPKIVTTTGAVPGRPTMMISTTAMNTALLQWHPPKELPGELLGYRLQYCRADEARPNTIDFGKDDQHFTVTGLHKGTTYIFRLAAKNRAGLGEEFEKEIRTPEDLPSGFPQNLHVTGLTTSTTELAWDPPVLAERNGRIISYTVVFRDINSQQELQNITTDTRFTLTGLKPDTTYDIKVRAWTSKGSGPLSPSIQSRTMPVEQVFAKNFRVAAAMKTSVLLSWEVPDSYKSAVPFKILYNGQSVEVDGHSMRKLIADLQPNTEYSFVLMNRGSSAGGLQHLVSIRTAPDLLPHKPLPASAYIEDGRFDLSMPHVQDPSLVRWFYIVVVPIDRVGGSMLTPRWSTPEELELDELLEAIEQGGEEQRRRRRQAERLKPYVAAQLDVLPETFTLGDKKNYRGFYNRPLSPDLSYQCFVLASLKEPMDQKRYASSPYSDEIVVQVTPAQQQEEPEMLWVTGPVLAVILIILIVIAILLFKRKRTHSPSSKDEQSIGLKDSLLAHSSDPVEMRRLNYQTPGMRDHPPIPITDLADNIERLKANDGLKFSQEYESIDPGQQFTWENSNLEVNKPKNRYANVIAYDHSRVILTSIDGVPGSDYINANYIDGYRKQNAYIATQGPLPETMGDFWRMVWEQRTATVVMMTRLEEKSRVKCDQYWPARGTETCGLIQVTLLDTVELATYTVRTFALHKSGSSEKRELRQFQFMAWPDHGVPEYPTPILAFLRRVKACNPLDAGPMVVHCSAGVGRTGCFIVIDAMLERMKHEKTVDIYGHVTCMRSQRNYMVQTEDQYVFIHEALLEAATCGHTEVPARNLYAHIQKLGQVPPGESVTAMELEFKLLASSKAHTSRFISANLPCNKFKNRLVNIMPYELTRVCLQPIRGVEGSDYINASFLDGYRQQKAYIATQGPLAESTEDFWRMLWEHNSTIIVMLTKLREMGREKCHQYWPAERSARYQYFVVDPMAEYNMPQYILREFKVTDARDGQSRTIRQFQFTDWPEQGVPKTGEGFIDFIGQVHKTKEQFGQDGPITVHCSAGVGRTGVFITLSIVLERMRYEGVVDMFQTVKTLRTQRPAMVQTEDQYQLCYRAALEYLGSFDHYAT
Write the quantity with the unit trailing the number.

Entry COc1cccc(S(=O)(=O)N(Cc2ccc(NS(=O)(=O)O)cc2)c2nc(-c3ccccc3)cs2)c1 — recorded IC50 = 34.8 µM

New cases:
Entry CC(C)(C)OC(=O)N1CCC(C(=O)N(Cc2ccc(NS(=O)(=O)O)cc2)c2ccccc2)CC1 — recorded IC50 = 112 µM

Entry O=C(c1cccnc1Cl)N(Cc1ccc(NS(=O)(=O)O)cc1)c1nc(-c2ccccc2)cs1 — recorded IC50 = 42.3 µM

Entry O=S(=O)(O)Nc1ccc(CNc2nc(-c3cccs3)cs2)cc1 — recorded IC50 = 130 µM

Entry O=[N+]([O-])c1ccc(CNc2ccccc2)cc1 — recorded IC50 = 76.4 µM

* * *

molecular target: Tyrosine-protein phosphatase non-receptor type 2 (Homo sapiens); test: Inhibition of recombinant TC-PTP (unknown origin)
Sequence (P17706 whole entry): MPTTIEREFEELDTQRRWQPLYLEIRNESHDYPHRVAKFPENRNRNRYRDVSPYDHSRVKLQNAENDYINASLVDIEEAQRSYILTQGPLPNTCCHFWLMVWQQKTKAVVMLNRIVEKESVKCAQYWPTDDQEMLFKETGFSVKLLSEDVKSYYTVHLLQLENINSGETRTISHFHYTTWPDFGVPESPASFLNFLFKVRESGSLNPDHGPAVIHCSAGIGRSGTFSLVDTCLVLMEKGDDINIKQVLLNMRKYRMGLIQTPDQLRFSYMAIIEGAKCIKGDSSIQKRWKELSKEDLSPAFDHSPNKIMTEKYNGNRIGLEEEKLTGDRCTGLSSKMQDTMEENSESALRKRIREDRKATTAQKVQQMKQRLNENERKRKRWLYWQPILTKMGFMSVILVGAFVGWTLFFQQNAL
Below, each of the compounds is paired with its reported IC50 value.
All answers are understood in µM, so give the number only.

The examples below pair each entry with its known result.
So the reported IC50 for O=C(c1cccnc1Cl)N(Cc1ccc(NS(=O)(=O)O)cc1)c1nc(-c2ccccc2)cs1 , on Tyrosine-protein phosphatase non-receptor type 2 (Homo sapiens), turned out to be 32.8

So the reported IC50 for O=[N+]([O-])c1ccc(CNc2ccccc2)cc1 , on Tyrosine-protein phosphatase non-receptor type 2 (Homo sapiens), turned out to be 20.1

So the reported IC50 for COc1cccc(S(=O)(=O)N(Cc2ccc(NS(=O)(=O)O)cc2)c2nc(-c3ccccc3)cs2)c1 , on Tyrosine-protein phosphatase non-receptor type 2 (Homo sapiens), turned out to be 31.3

Alright, here's another compound for you.
So the reported IC50 for CC(C)(C)OC(=O)N1CCC(C(=O)N(Cc2ccc(NS(=O)(=O)O)cc2)c2ccccc2)CC1 , on Tyrosine-protein phosphatase non-receptor type 2 (Homo sapiens), turned out to be 102

* * *

Below, each of the molecules is paired with its reported IC50 value.
molecular target: Tyrosine-protein phosphatase non-receptor type 11 (Homo sapiens, UniProt Q06124); assay: Inhibition of recombinant SHP2 (unknown origin)
Sequence (Q06124 whole entry): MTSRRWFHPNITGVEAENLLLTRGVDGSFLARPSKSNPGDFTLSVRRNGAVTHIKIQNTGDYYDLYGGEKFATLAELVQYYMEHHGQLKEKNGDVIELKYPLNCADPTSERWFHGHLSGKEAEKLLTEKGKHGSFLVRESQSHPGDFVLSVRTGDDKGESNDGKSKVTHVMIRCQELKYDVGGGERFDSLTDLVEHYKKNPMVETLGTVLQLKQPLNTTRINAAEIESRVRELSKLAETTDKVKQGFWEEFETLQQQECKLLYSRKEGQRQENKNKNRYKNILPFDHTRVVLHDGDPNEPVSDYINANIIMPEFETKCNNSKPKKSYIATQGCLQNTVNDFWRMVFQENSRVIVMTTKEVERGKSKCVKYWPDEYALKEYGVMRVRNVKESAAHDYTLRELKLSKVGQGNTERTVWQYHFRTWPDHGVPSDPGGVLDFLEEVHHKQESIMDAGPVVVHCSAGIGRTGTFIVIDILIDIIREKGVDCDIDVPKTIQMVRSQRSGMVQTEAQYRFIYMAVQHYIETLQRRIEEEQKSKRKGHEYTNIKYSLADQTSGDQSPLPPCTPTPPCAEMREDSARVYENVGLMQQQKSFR
All answers are understood in µM, so give the number only.

Entry CC(C)(C)OC(=O)N1CCC(C(=O)N(Cc2ccc(NS(=O)(=O)O)cc2)c2ccccc2)CC1 — recorded IC50 = 24.7

* * *

molecular target: Tyrosine-protein phosphatase non-receptor type 1 (Homo sapiens, UniProt P18031); experiment: Inhibition of recombinant PTP1B (unknown origin)
Test Readout: pIC50
Schema: pIC50 number; meaning minus log10 of the concentration expressed in molar units.

The examples below pair each entry with its known result.
Entry COc1cccc(S(=O)(=O)N(Cc2ccc(NS(=O)(=O)O)cc2)c2nc(-c3ccccc3)cs2)c1 — recorded pIC50 = 4.69

Entry CC(C)(C)OC(=O)N1CCC(C(=O)N(Cc2ccc(NS(=O)(=O)O)cc2)c2ccccc2)CC1 — recorded pIC50 = 3.91

Entry O=[N+]([O-])c1ccc(CNc2ccccc2)cc1 — recorded pIC50 = 4.80

Alright, here's another compound for you.
Entry O=C(c1cccnc1Cl)N(Cc1ccc(NS(=O)(=O)O)cc1)c1nc(-c2ccccc2)cs1 — recorded pIC50 = 4.65

* * *

molecular target: Receptor-type tyrosine-protein phosphatase beta (Homo sapiens); experiment: Inhibition of recombinant human PTPbeta using DiFMUP as substrate preincubated for 10 mins followed by substrate addition and measured after 2 hrs
Exam item: assign Y to entries whose IC50 is below 2000 nM and N to entries at or above 2000 nM. Note that a value of exactly 2000 nM receives N.

Q. Find out if reported IC50 for O=C(c1cccnc1Cl)N(Cc1ccc(NS(=O)(=O)O)cc1)c1nc(-c2ccccc2)cs1 is less than 2000 nM
A. N

Q. Find out if reported IC50 for O=C(Cc1cccc(F)c1)N(Cc1ccc(NS(=O)(=O)O)cc1)c1ccccc1 is less than 2000 nM
A. Y

Q. Find out if reported IC50 for O=S(=O)(O)Nc1ccc(CN(c2nc(-c3cccs3)cs2)S(=O)(=O)c2cccc(F)c2)cc1 is less than 2000 nM
A. Y

Q. Find out if reported IC50 for COc1cccc(S(=O)(=O)N(Cc2ccc(NS(=O)(=O)O)cc2)c2nc(-c3ccccc3)cs2)c1 is less than 2000 nM
A. Y

Q. Find out if reported IC50 for O=C(COc1ccc(Cl)cc1Cl)N(Cc1ccc(NS(=O)(=O)O)cc1)c1ccccc1 is less than 2000 nM
A. Y

New cases:
Q. Find out if reported IC50 for O=C(Cc1cccc(F)c1)N(Cc1ccc(NS(=O)(=O)O)cc1)c1nc(-c2ccccc2)cs1 is less than 2000 nM
A. N

Q. Find out if reported IC50 for COC(=O)N[C@@H](Cc1ccccc1)C(=O)N(Cc1ccc(NS(=O)(=O)O)cc1)c1ccccc1 is less than 2000 nM
A. N

* * *

target: Tyrosine-protein phosphatase non-receptor type 11 (Homo sapiens); test: Inhibition of recombinant SHP2 (unknown origin)
Below, each of the molecules is paired with its reported IC50 value.
All answers are understood in µM, so give the number only.

Entry O=C(c1cccnc1Cl)N(Cc1ccc(NS(=O)(=O)O)cc1)c1nc(-c2ccccc2)cs1 — recorded IC50 = 19.6

Entry O=[N+]([O-])c1ccc(CNc2ccccc2)cc1 — recorded IC50 = 55.3

Entry O=S(=O)(O)Nc1ccc(CNc2nc(-c3cccs3)cs2)cc1 — recorded IC50 = 25.6

Entry COc1cccc(S(=O)(=O)N(Cc2ccc(NS(=O)(=O)O)cc2)c2nc(-c3ccccc3)cs2)c1 — recorded IC50 = 6.41
